- Tested on: RPMI-8226 leukemia
- experimentDescription: NCI-60 one-dose screen, 48 h (100 = growth as untreated, 0 = no growth, -100 = all killed)
- measurementParameters: 10 µM unless noted
This is part of a sample that, as a whole, favours compounds with a hit. Of some 83,000 tested, about 20% had one in any assay.
Mark t only when growth stays strictly below 80%. Values equal to the cut-off are f.

Previously resolved entries follow.
{"columns": ["compound", "assayedTarget", "class"],
 "data": [
  ["COc1c(O)cc2oc3cc(O[C@@H]4OC(C)[C@@H](O)[C@H](O)C4O)c(CC=C(C)C)c(O)c3c(=O)c2c1CC=C(C)C (stereo partly specified)", "RPMI-8226 leukemia", "t"],
  ["CNC(=O)c1cc(Oc2ccc3c(c2)sc2nc(-c4ccc(NC(C)=O)cc4)cn23)ccn1", "RPMI-8226 leukemia", "t"],
  ["COc1ccc2c(c1)OC13Oc4cc(OC)ccc4C=C1CCCCC3=C2", "RPMI-8226 leukemia", "f"],
  ["COc1ccc(C2=NN(c3ccc(S(N)(=O)=O)cc3)C(c3ccc(Cl)cc3)C2)c(O)c1 (stereo unspecified)", "RPMI-8226 leukemia", "t"],
  ["COc1cc(C2=NNC(c3ccc(N(C)C)cc3)C2)cc(OC)c1OC (stereo unspecified)", "RPMI-8226 leukemia", "t"]
]}

Qu. Report whether reported growth is lower than 80% (strictly) for "Cc1nn(-c2ccc(-c3ccc(OC(F)(F)F)cc3)cc2)c2nc(-c3ccccc3)nc(N)c12"
Ans. f

Qu. Report whether reported growth is lower than 80% (strictly) for "O=C1CCc2ccccc2N1"
Ans. f

Qu. Report whether reported growth is lower than 80% (strictly) for "COc1cc(F)c(-c2nc3c(C)cccc3n2Cc2c(F)cccc2F)c(F)c1"
Ans. t

Qu. Report whether reported growth is lower than 80% (strictly) for "CCO/C=N/S(=O)(=O)c1cc2c(cc1Cl)NC=NS2(=O)=O"
Ans. f

---

- Test system: SK-MEL-5 melanoma
- experimentDescription: NCI-60 one-dose screen, 48 h (100 = growth as untreated, 0 = no growth, -100 = all killed)
- measurementParameters: 10 µM unless noted
The panel holds about 83,000 compounds, 20% with a hit somewhere; the sample as a whole holds those more often.
This section presents compounds with their documented growth values.
State just the number; it will be interpreted in %.

Field: example entries. Status: answers known.
{"columns": ["compound", "growth (%)"],
 "data": [
  ["CN1CCN(S(=O)(=O)O[C@@H]2C(=O)N(c3cc4c5ccccc5ccc4c4ccccc34)[C@H]2c2ccc(F)cn2)CC1", 88.7],
  ["N#Cc1c(-c2ccc(F)cc2)nc(N/N=C/c2c[nH]c3ccccc23)nc1N1CCOCC1", 37.1],
  ["Cc1ccc(CS/C(=C\\c2ccc([N+](=O)[O-])cc2)C(=O)c2ccc(F)cc2)cc1", 62.7],
  ["COC(=O)c1nc(-c2ccccc2)oc1S(=O)(=O)n1nc(-c2ccccc2)cc1N", 94.7],
  ["CN1CCN(/C=C2\\CC(C(=O)NCc3ccc(Cl)cc3Cl)NC2=O)CC1 (centres undefined)", 95.8]
]}

Qu. Query growth for "Nc1c(C(=O)c2ccccc2)sc2nc(-c3cc4ccccc4o3)cc(-c3ccc(Cl)cc3)c12"
Ans. 97.8

Qu. Query growth for "Cc1nnc(/N=C2\NC(=O)/C(=C/c3ccsc3)S2)s1"
Ans. 98.4

Qu. Query growth for "O=Cc1[nH]c(Sc2ccccc2)c2ccccc12"
Ans. 74

Qu. Query growth for "CC(C)(C)c1ccc(O)c(Cc2cc(C(C)(C)C)ccc2O)c1"
Ans. 99

Qu. Query growth for "c1ccc(-c2n(Cc3ccc4ccccc4n3)cc[n+]2Cc2ccc3ccccc3c2)cc1"
Ans. -95.2

---

- Tested on: HOP-62 NSCLC
- experimentDescription: NCI-60 one-dose screen, 48 h
- measurementParameters: 10 µM unless noted
The panel holds about 83,000 compounds, 20% with a hit somewhere; the sample as a whole holds those more often. Activity calls are given as the source filed them. The calls were made as follows: active = growth percent below 10; inactive = the rest.
# valid calls are active, inactive; nothing else

Previously resolved entries follow.
{"columns": ["compound", "assayedTarget", "class"],
 "data": [
  ["N#C/C(=C/c1ccc(O)c([N+](=O)[O-])c1)c1nc(-c2ccc([N+](=O)[O-])cc2)cs1", "HOP-62 NSCLC", "inactive"],
  ["CC1=C/C(=N\\N=C2/C=C(C)CC(C)(C)C2)CC(C)(C)C1", "HOP-62 NSCLC", "inactive"],
  ["C#C[C@@]1(O)[C@@H](CO)O[C@@H](n2cc(Cl)c3c(N)ccnc32)[C@@H]1O", "HOP-62 NSCLC", "inactive"],
  ["Cc1ccccc1NC(=O)c1sc2nc(C)c(C(C)O)cc2c1N (centres undefined)", "HOP-62 NSCLC", "inactive"],
  ["CCCCN(CCCC)CC(CN(CC)CC)OC(=O)Nc1ccccc1 (centres undefined)", "HOP-62 NSCLC", "inactive"],
  ["O=C1NN(c2ccccc2)C(c2ccc3c(c2)OCO3)N2CCC[C@@H]12 (some centres undefined)", "HOP-62 NSCLC", "inactive"]
]}

Qu. Hi, sorry to bother you, what did the test record for NS(=O)(=O)c1ccc(C2C3=C(CCCC3=O)OC3=C2C(=O)c2ccccc2C3=O)cc1 (centres undefined) ?
Ans. active

Qu. Hi, sorry to bother you, what did the test record for "O=C1Nc2ccc(Br)cc2/C1=N\N=C/c1cn(Cc2ccccc2)c2ccccc12" ?
Ans. inactive

---

- System: HS 578T breast
- experimentDescription: NCI-60 one-dose screen, 48 h (100 = growth as untreated, 0 = no growth, -100 = all killed)
- measurementParameters: 10 µM unless noted
About 83,000 compounds went through this panel and 20% of them were active in at least one assay; those are over-represented in the sample as a whole.
This section presents compounds with their documented growth values.
State just the number; it will be interpreted in %.

{"columns": ["compound", "unitLabel", "observedValue"],
 "data": [
  ["Nc1ccccc1NS(=O)(=O)c1ccc(Cl)cc1", "%", 98.6],
  ["Cc1nnc(/N=C2\\NC(=O)/C(=C/c3ccc(N(C)C)cc3)S2)s1", "%", 85.6],
  ["N#Cc1c(-c2ccc(F)cc2)c(C#N)c2c(C#N)c(N)nn2c1N", "%", 98],
  ["NS(=O)(=O)c1ccc(-n2nc(-c3ccccc3)ccc2=O)cc1", "%", 106],
  ["CS(=O)(=O)O[C@@H]1C(=O)N(c2cc3c4ccccc4ccc3c3ccccc23)[C@H]1c1ccc(F)cn1", "%", 7.01]
]}

Qu. Query growth for "O=C1NC(SCc2ccc(F)cc2)=N/C1=C/c1cccc(OCc2ccc(Cl)cc2)c1"
Ans. 29.6

Qu. Query growth for "CCOC(=O)C1CCN(S(=O)(=O)/N=C2/NC(=O)NC2=C(Cl)Cl)CC1"
Ans. 24.1

Qu. Query growth for COc1ccc(C(C)c2cc(OC)c(OC)c(OC)c2)cc1 (stereo not given)
Ans. 37.5

Qu. Query growth for "COc1ccc(C(=O)c2cc(OC)c(C)c(OC)c2)cc1OC(=O)CCl"
Ans. 40.5

Qu. Query growth for "CC(/C=C/c1ccccc1)=N/NC(=O)c1ccncc1"
Ans. 99.6

---

- Test system: MDA-MB-231 breast
- experimentDescription: NCI-60 one-dose screen, 48 h
- measurementParameters: 10 µM unless noted
This is part of a sample that, as a whole, favours compounds with a hit. Of some 83,000 tested, about 20% had one in any assay. Activity calls are given as the source filed them. The calls were made as follows: active = growth percent below 10; inactive = the rest.
# valid calls are true (1) = active, false (0) = inactive; nothing else

Previously resolved entries follow.
{"columns": ["compound", "class"],
 "data": [
  ["COc1ccc(C(C)c2cc(OC)c(OC)c(OC)c2)cc1 (centres undefined)", "false (0)"],
  ["CN(C)c1ccc(-c2ccc3[nH]c(=O)nc(-c4ccc(F)cc4)c3c2)cn1", "false (0)"],
  ["COc1ccccc1Nc1nnc(-c2ccc(Cl)cc2)o1", "false (0)"],
  ["COc1cc2c(Nc3ccc(NC(=O)Nc4ccc(Cl)c(C(F)(F)F)c4)c(Cl)c3)ncnc2cc1OCCCN1CCN(C)CC1", "true (1)"],
  ["COc1cc(C(=O)Nc2cc(O)c(C/C=C(\\C)CCC=C(C)C)c(O)c2)cc2c1O[C@]1(C)CC[C@@H](O)C(C)(C)[C@H]1C2", "true (1)"],
  ["CCC1=C[C@H]2CN(CCc3c([nH]c4ccccc34)[C@@](C(=O)OC)(c3cc4c(cc3OC)N(C)[C@H]3[C@@](O)(C(=O)OC)[C@H](OC(C)=O)[C@]5(CC)[C@@H]6C[C@@H]6CN6CC[C@]43[C@@H]65)C2)C1", "true (1)"],
  ["CCOC(=O)c1c(C(F)(F)F)n([O-])c2ccc(Cl)cc2[n+]1=O", "true (1)"],
  ["Nc1c(C(=O)Nc2ccccc2Cl)sc2nc3c(cc12)CN(Cc1ccccc1)CC3", "false (0)"]
]}

Qu. Hi, sorry to bother you, what did the test record for "c1ccc(-c2n(Cc3ccc4ccccc4n3)cc[n+]2Cc2ccc3ccccc3c2)cc1" ?
Ans. true (1)

Qu. Hi, sorry to bother you, what did the test record for "Cc1cc(C)n(-c2nc(-c3cccs3)c(C#N)c(=O)[nH]2)n1" ?
Ans. false (0)

Qu. Hi, sorry to bother you, what did the test record for "N#Cc1c(NC(=O)c2cccs2)[n+]([O-])c2cc(C(F)(F)F)ccc2[n+]1[O-]" ?
Ans. false (0)

Qu. Hi, sorry to bother you, what did the test record for "C=C(C)[C@@H]1CC[C@]2(C(=O)N3CCN(C)CC3)CC[C@]3(C)[C@H](CC[C@@H]4[C@@]5(C)C/C(=C/c6ccco6)C(=O)C(C)(C)[C@@H]5CC[C@]43C)[C@@H]12" ?
Ans. false (0)
